Just for reference, patent US20240067734A1 is where these values come from.

molecular target: T1, di cyNKG2D ECD Fc avi (cynomolgus, biotinylated at the avi-tag); experiment: SPR Biacore; IgG captured by anti-Fab, antigen analyte
T1 construct: Dimeric fusion of cynomolgus NKG2D ECD to the C-terminus of an avi-tagged human IgG1 Fc; also called recombinant cynomolgus NKG2D
T1 sequence (chain, as listed by the source limits assumed): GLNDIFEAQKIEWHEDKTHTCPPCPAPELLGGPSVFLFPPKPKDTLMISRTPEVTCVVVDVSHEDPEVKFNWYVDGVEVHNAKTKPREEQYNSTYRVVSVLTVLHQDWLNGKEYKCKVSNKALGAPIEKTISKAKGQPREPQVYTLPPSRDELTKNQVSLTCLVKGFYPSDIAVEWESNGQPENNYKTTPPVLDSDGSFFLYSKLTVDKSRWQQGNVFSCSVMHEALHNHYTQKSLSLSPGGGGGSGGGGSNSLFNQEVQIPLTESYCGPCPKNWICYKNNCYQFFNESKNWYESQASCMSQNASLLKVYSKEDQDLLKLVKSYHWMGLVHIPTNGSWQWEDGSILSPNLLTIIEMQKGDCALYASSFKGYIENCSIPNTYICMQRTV
pKd values for the binders below.
Answer as the number alone; pKd is minus log10 of concentration in mol/L.

These recorded examples may help you get a feel for the data.
Look up and report measured pKd for this entry: anti-NKG2D antibody clone 013 (antibody, V domains shown, From transgenic rabbits) VH: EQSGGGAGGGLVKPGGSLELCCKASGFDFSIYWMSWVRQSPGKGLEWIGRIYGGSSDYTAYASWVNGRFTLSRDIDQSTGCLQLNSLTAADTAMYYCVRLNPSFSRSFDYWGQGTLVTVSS VL: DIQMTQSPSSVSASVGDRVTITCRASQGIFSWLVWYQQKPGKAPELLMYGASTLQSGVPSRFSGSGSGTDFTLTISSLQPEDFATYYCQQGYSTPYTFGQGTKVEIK 8.10

Look up and report measured pKd for this entry: anti-NKG2D antibody clone 230 (antibody, V domains shown, From transgenic rabbits) VH: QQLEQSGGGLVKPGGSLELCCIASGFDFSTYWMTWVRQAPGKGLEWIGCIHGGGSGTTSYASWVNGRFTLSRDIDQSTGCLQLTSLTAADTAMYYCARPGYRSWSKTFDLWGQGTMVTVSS VL: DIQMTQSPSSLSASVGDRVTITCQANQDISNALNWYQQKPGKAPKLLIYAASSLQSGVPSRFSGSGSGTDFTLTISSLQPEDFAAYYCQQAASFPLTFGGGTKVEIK 8.59

With those in mind, consider the next binder.
Look up and report measured pKd for this entry: anti-NKG2D antibody clone 395 (antibody, V domains shown, From transgenic rabbits; rabbit VH, human VL) VH: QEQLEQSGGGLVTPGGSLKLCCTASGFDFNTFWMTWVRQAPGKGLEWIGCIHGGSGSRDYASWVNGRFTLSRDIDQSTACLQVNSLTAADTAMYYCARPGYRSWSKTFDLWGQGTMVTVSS VL: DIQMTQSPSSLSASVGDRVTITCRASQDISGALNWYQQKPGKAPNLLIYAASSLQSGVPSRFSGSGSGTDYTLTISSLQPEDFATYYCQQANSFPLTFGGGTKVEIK 9.11
